Just for reference, ChEMBL document CHEMBL4177599 is where these values come from.

# Procedure Summary: Protein binding in human plasma at 5 uM after 4 hrs by LC-MS/MS analysis
Reported Metric: fraction unbound at 4 h, 5 µM
One number for each entry.

1) O=C(Cn1cnc([N+](=O)[O-])n1)Nc1cccc(-c2ccccc2)c1; 0.028
2) O=C(Cn1cnc([N+](=O)[O-])n1)Nc1nc(-c2ccc(F)c(F)c2)cs1; 0.002
3) O=C(Cn1cnc([N+](=O)[O-])n1)N1CCN(Cc2ccc(C(F)(F)F)cc2)CC1; 0.179
4) O=C(Cn1cnc([N+](=O)[O-])n1)Nc1ccc(N2CCCCC2)cc1; 0.233
5) O=C(CCn1cnc([N+](=O)[O-])n1)Nc1cccc(-c2ccccc2)c1; 0.042
6) CC(C)NCC(O)COc1cccc2ccccc12 (stereo not drawn) [PROPRANOLOL]; 0.199

Record fraction unbound at 4 h, 5 µM for all entries; do not skip any.
1. O=C(Cn1cnc([N+](=O)[O-])n1)N1CCN(Cc2ccc(Cl)c(Cl)c2)CC1
2. O=C(CCn1cnc([N+](=O)[O-])n1)Nc1cccc(OCc2ccccc2)c1

Output line:
1: 0.076; 2: 0.033

* * *

# Procedure Summary: Half life in human liver S9 microsomes at 1 uM in absence of NADPH by LC-MS/MS analysis
Reported Metric: half-life at 1 µM

Example entries begin here.
1. O=C(Cn1cnc([N+](=O)[O-])n1)Nc1cccc(-c2ccccc2)c1; 1.32 h
2. O=C(Cn1cnc([N+](=O)[O-])n1)N1CCN(Cc2ccc(C(F)(F)F)cc2)CC1; > 3 h

Record half-life at 1 µM for all entries; do not skip any.
1. O=C(Cn1cnc([N+](=O)[O-])n1)Nc1nc(-c2ccc(F)c(F)c2)cs1
2. O=C(Cn1cnc([N+](=O)[O-])n1)N1CCN(Cc2ccc(Cl)c(Cl)c2)CC1
3. O=C(Cn1cnc([N+](=O)[O-])n1)Nc1ccc(N2CCCCC2)cc1
4. O=C(CCn1cnc([N+](=O)[O-])n1)Nc1cccc(OCc2ccccc2)c1
5. O=C(CCn1cnc([N+](=O)[O-])n1)Nc1cccc(-c2ccccc2)c1

Output line:
> 3 h
2.9 h
> 3 h
> 3 h
> 3 h

* * *

# Procedure Summary: Fraction unbound in human plasma at 5 uM after 4 hrs by LC-MS/MS analysis
# Format: ADME, cell-free
Reported Metric: fraction unbound at 4 h, 5 µM
Give bare numbers.

1. O=C(CCn1cnc([N+](=O)[O-])n1)Nc1cccc(-c2ccccc2)c1; 0.033
2. CC(C)NCC(O)COc1cccc2ccccc12 (stereo not drawn) [PROPRANOLOL]; 0.244

The record that follows has no fraction unbound at 4 h, 5 µM shown yet.
Input line: So what does the record say about fraction unbound at 4 h, 5 µM for O=C(CCn1cnc([N+](=O)[O-])n1)Nc1cccc(OCc2ccccc2)c1 ?
Output line: 0.042

* * *

# Tested on: Mycobacterium tuberculosis
# Procedure Summary: Antitubercular activity against Mycobacterium tuberculosis H37Rv ATCC 27294 after 10 days under low oxygen condition followed by incubation under aerobic condition for 28 hrs by LORA
# Format: functional, organism-based
Hi! Just check whether MIC is below 30 µM. Below gives satisfied, equal or above gives not satisfied.

1) O=C(Cn1cnc([N+](=O)[O-])n1)Nc1nc(-c2ccc(F)c(F)c2)cs1; not satisfied
2) O=C(Cn1cnc([N+](=O)[O-])n1)Nc1cccc(-c2ccccc2)c1; not satisfied
3) O=C(CCn1cnc([N+](=O)[O-])n1)Nc1ccc(Oc2ccc(F)cc2)cc1; not satisfied
4) O=C(Cn1cnc([N+](=O)[O-])n1)N1CCN(C(c2ccccc2)c2ccc(Cl)cc2)CC1 (stereo not given); not satisfied
5) O=C(NCCCCn1cnc([N+](=O)[O-])n1)c1sc2ccccc2c1Cl; satisfied

Input line: State whether 30 µM exceeds MIC recorded for O=C(Cn1ccnc1[N+](=O)[O-])Nc1ccc(Oc2ccccc2)cc1 .
Output line: not satisfied

Input line: State whether 30 µM exceeds MIC recorded for O=C(Cn1cnc([N+](=O)[O-])n1)Nc1ccc(Cc2ccccc2)cc1 .
Output line: not satisfied

Input line: State whether 30 µM exceeds MIC recorded for O=C(NCCCCn1cnc([N+](=O)[O-])n1)c1nc2ccccc2s1 .
Output line: satisfied

Input line: State whether 30 µM exceeds MIC recorded for O=C(Cn1ccnc1[N+](=O)[O-])Nc1ccc(Oc2ccc(Cl)cc2)cc1 .
Output line: not satisfied

* * *

# Procedure Summary: in vitro
# Particulars: human, Caco-2
# Description: Apparent permeability of the compound across basolateral side to apical side in human Caco2 cells monolayer at 10 uM after 2 hrs by LC-MS/MS analysis
Reported Metric: Papp B→A at 2 h, 10 µM (×10⁻⁶ cm/s)
One number for each entry, in ×10⁻⁶ cm/s.

Example entries begin here.
1) O=C(CCn1cnc([N+](=O)[O-])n1)Nc1cccc(OCc2ccccc2)c1; 10.5
2) O=C(Cn1cnc([N+](=O)[O-])n1)N1CCN(Cc2ccc(Cl)c(Cl)c2)CC1; 14.8

Record Papp B→A at 2 h, 10 µM for all entries; do not skip any.
1. O=C(Cn1cnc([N+](=O)[O-])n1)Nc1ccc(N2CCCCC2)cc1
2. O=C(CCn1cnc([N+](=O)[O-])n1)Nc1cccc(-c2ccccc2)c1

Output line:
[27, 7]

* * *

# Test system: Mycobacterium tuberculosis
# Procedure Summary: Antitubercular activity against luxABCDE expressing Mycobacterium tuberculosis H37Rv infected in human THP1 cells measured after 3 days by luminescence assay
# Type: functional, organism-based
# Particulars: THP-1, 72 h
Reported Metric: IC90 (µM)
Give bare numbers, in µM.

Example entries begin here.
1) O=C(CCn1cnc([N+](=O)[O-])n1)Nc1ccc(Oc2ccc(F)cc2)cc1; 16
2) O=C(Cn1cnc([N+](=O)[O-])n1)N1CCN(Cc2ccc(C(F)(F)F)cc2)CC1; 14
3) O=C(Cn1cnc([N+](=O)[O-])n1)Nc1ccc(Cc2ccccc2)cc1; 12
4) NNC(=O)c1ccncc1 [ISONIAZID]; 0.24
5) O=C(Cn1cnc([N+](=O)[O-])n1)Nc1ccc(N2CCCCC2)cc1; 25

Record IC90 for all entries; do not skip any.
1. O=C(CCn1cnc([N+](=O)[O-])n1)Nc1cccc(-c2ccccc2)c1
2. O=C(CCn1cnc([N+](=O)[O-])n1)Nc1cccc(OCc2ccccc2)c1
3. O=C(Cn1cnc([N+](=O)[O-])n1)Nc1cccc(-c2ccccc2)c1

Output line:
[4.1, 2.9, 12]

* * *

# System: THP-1
# Procedure Summary: Cytotoxicity against human THP1 cells after 3 days by luminescence assay
# Assay type: cell-based
# Particulars: THP-1, 72 h
Reported Metric: IC50

Example entries begin here.
1) O=C(CCn1cnc([N+](=O)[O-])n1)Nc1ccc(Oc2ccc(F)cc2)cc1; 21 µM
2) O=C(Cn1cnc([N+](=O)[O-])n1)N1CCN(Cc2ccc(C(F)(F)F)cc2)CC1; > 50 µM
3) O=C(Cn1cnc([N+](=O)[O-])n1)Nc1cccc(-c2ccccc2)c1; > 50 µM

Record IC50 for all entries; do not skip any.
1. O=C(Cn1cnc([N+](=O)[O-])n1)Nc1ccc(N2CCCCC2)cc1
2. O=C(CCn1cnc([N+](=O)[O-])n1)Nc1ccc(Oc2ccccc2)cc1

Output line:
1. > 50 µM
2. 33 µM

* * *

# Procedure Summary: in vitro
# Particulars: human, Caco-2
# Description: Apparent permeability of the compound across apical side to basolateral side in human Caco2 cells monolayer at 10 uM after 2 hrs by LC-MS/MS analysis
Reported Metric: Papp A→B at 2 h, 10 µM (×10⁻⁶ cm/s)
Answers are plain numbers, in ×10⁻⁶ cm/s.

Example entries begin here.
1) O=C(Cn1cnc([N+](=O)[O-])n1)N1CCN(Cc2ccc(Cl)c(Cl)c2)CC1; 16.3
2) O=C(Cn1cnc([N+](=O)[O-])n1)Nc1ccc(N2CCCCC2)cc1; 38.4
3) O=C(CCn1cnc([N+](=O)[O-])n1)Nc1cccc(OCc2ccccc2)c1; 15.8

Input line: So what does the record say about Papp A→B at 2 h, 10 µM for O=C(CCn1cnc([N+](=O)[O-])n1)Nc1cccc(-c2ccccc2)c1 ?
Output line: 18

* * *

# Procedure Summary: in vitro
# Particulars: human, Caco-2
# Description: Efflux ratio of apparent permeability from basolateral to apical over apical to basolateral side in human Caco2 cells monolayer at 10 uM after 2 hrs by LC-MS/MS analysis
Reported Metric: efflux ratio at 2 h, 10 µM
One number for each entry.

Example entries begin here.
1) O=C(CCn1cnc([N+](=O)[O-])n1)Nc1cccc(OCc2ccccc2)c1; 0.67
2) O=C(Cn1cnc([N+](=O)[O-])n1)Nc1ccc(N2CCCCC2)cc1; 0.7

Input line: So what does the record say about efflux ratio at 2 h, 10 µM for O=C(CCn1cnc([N+](=O)[O-])n1)Nc1cccc(-c2ccccc2)c1 ?
Output line: 0.39

* * *

Would you mind telling me the reported microsomal CLint at 1 µM of each entry?
# Procedure Summary: Intrinsic clearance in human liver S9 microsomes at 1 uM in absence of NADPH by LC-MS/MS analysis
# Format: ADME, S9 microsome
# Particulars: read-out: CLH

1) O=C(CCn1cnc([N+](=O)[O-])n1)Nc1cccc(OCc2ccccc2)c1; < 12.8 µL/min/mg
2) COc1ccc2c(c1)[C@]13CCCC[C@@H]1[C@H](C2)N(C)CC3; < 12.8 µL/min/mg

The record that follows has no microsomal CLint at 1 µM shown yet.
Input line: So what does the record say about microsomal CLint at 1 µM for O=C(CCn1cnc([N+](=O)[O-])n1)Nc1cccc(-c2ccccc2)c1 ?
Output line: < 12.8 µL/min/mg
